- ASSAY PROTOCOL: Inhibition of Bacillus stearothermophilus alpha glucosidase-4
- Design: species or system Geobacillus stearothermophilus
Please go through the items and note down their IC50.

Give IC50 for the following molecule: Oc1cc(O)c2c(c1)O[C@@]1(c3ccc(O)c(O)c3)Oc3cc(O)c4c(c3[C@@H]2[C@H]1O)O[C@H](c1ccc(O)c(O)c1)[C@H](O)[C@H]4c1c(O)cc(O)c2c1O[C@H](c1ccc(O)c(O)c1)[C@H](O)C2 [CINNAMTANNIN B1]
> 100 µM

Give IC50 for the following molecule: Oc1cc(O)c2c(c1)O[C@H](c1ccc(O)c(O)c1)[C@H](O)[C@H]2c1c(O)c2c(c3c1O[C@]1(c4ccc(O)c(O)c4)Oc4cc(O)cc(O)c4[C@H]3[C@H]1O)O[C@H](c1ccc(O)c(O)c1)[C@H](O)[C@H]2c1c(O)cc(O)c2c1O[C@H](c1ccc(O)c(O)c1)[C@H](O)C2
> 100 µM

Give IC50 for the following molecule: Oc1cc(O)c2c(c1)O[C@H](c1ccc(O)c(O)c1)[C@H](O)C2 [(-)-EPICATECHIN]
> 100 µM
